Tested on: M14 melanoma
Test: NCI-60 one-dose screen, 48 h (100 = growth as untreated, 0 = no growth, -100 = all killed)
Details: 10 µM unless noted
About 83,000 compounds went through this panel and 20% of them were active in at least one assay; those are over-represented in the sample as a whole.
METRIC NAME: growth (%)

>>> df
                                   compound   target_desc  unit_label  readout_value
0  COc1ccc(-c2c3c(N)c4c(nc3nc3c2c(C)nn3-c2ccccc2)CCCCC4)cc1  M14 melanoma           %           88.9
1  COc1nc2c(cc1S(=O)(=O)c1ccccc1)CCc1c-2cnn1-c1ccccc1Cl  M14 melanoma           %           68.9
2  COc1cc(/C=N/NC(=O)c2cnn3c2NC(c2ccccc2)C3)ccc1OC1CCCC1 (stereo not given)  M14 melanoma           %           22.8
3  O=C(Nc1ccc(Cl)c(Cl)c1)OCn1ncc2ccc([N+](=O)[O-])cc21  M14 melanoma           %           94.7
4  C[C@@H](Oc1cc(-c2cnn(C3CC4(CCCNC4)C3)c2)cnc1N)c1c(Cl)ccc(F)c1Cl (stereo not given in full)  M14 melanoma           %          -59.5

Data provenance is PubChem BioAssay (NCI).
